biological target: DNA gyrase (Staphylococcus aureus, UniProt P0A0K8+P20831); assay: Inhibition of wild-type Staphylococcus aureus DNA gyrase assessed as inhibition of supercoiling of pBR322 DNA after 60 min by gel electrophoresis assay
Sequence (P0A0K8 whole entry): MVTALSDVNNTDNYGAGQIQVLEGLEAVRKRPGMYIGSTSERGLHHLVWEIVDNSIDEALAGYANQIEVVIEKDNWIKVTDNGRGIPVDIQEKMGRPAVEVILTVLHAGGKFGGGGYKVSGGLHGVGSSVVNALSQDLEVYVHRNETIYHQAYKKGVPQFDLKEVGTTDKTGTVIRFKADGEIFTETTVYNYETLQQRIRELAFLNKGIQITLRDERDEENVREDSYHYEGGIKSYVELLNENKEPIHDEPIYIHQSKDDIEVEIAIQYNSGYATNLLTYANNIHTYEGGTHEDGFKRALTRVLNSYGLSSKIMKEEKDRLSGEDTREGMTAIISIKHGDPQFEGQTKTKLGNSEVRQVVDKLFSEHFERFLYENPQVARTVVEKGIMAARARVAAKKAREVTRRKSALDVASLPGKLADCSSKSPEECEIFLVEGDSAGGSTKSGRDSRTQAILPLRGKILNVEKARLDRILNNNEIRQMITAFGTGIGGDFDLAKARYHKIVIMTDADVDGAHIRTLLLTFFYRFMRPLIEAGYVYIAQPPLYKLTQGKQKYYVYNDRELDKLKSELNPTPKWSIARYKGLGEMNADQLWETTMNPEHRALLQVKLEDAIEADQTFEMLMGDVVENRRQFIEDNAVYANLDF
Sequence (P20831 whole entry): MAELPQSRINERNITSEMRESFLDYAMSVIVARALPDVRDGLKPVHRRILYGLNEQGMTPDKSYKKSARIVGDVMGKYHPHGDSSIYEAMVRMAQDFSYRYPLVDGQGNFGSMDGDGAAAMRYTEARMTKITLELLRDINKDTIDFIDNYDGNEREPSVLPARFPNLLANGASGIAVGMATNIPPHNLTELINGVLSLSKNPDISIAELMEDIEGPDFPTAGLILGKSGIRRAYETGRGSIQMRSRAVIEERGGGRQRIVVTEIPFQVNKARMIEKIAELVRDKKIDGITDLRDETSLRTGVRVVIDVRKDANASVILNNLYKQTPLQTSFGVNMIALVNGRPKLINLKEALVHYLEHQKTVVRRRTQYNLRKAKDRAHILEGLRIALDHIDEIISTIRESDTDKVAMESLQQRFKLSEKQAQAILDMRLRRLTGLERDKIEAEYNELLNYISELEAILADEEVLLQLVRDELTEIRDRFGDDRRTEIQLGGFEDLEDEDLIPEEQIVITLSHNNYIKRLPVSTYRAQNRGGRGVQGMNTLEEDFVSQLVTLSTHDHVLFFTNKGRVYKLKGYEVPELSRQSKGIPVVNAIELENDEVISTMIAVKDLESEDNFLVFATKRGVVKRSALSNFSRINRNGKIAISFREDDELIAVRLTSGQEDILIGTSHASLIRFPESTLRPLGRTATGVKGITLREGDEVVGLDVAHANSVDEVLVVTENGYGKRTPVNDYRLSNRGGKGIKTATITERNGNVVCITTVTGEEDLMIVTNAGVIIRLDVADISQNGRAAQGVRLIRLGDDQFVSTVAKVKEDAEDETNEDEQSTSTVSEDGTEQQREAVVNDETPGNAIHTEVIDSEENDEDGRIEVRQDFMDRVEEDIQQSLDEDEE
METRIC: pIC50
Give bare numbers, as −log10 of the molar value.

• COc1c(N2CC[C@@H]([C@H](C)N)C2)c(F)cc2c(=O)c3c(=O)[nH]sc3n(C3CC3)c12 (mixture of isomers) = 6.17
• COc1c(N2CC[C@@H](C(C)(C)N)C2)c(F)cc2c(=O)c3c(=O)[nH]sc3n(C3CC3)c12 = 6.17
• COc1c(N2CC[C@@H]([C@H](C)NCCF)C2)c(F)cc2c(=O)c3c(=O)[nH]sc3n(C3CC3)c12 (mixture of isomers) = 5.88

Could you now consider this next molecule?
Given CN[C@@H](C)[C@@H]1CCN(c2c(F)cc3c(=O)c4c(=O)[nH]sc4n(C4CC4)c3c2OC)C1 (mixture of isomers) , state its recorded pIC50.
5.96

====

Kindly supply the reported MIC values for the records listed here.
test system: Staphylococcus aureus; test: Antibacterial activity against methicillin- and quinolone-resistant Staphylococcus aureus ATCC700699 after 24 hrs by microdilution method; type: functional; settings: ATCC700699, 24 h
Answers are plain numbers, in µg/mL.

Consider the following illustrative entries.
* COc1c(N2CC[C@H](N)C2)c(F)cc2c(=O)c3c(=O)[nH]sc3n(C3CC3)c12 | 0.5
* CN[C@H](C)[C@@H]1CCN(c2c(F)cc3c(=O)c4c(=O)[nH]sc4n(C4CC4)c3c2OC)C1 | 0.5

Now for another entry.
// query MIC value for entry COc1c(N2CC[C@@H](CNC(C)C)C2)c(F)cc2c(=O)c3c(=O)[nH]sc3n(C3CC3)c12
0.5

====

test: Cytotoxicity against human Hep2 cells after 72 hrs by alamar blue assay; assay type: cell-based; conditions: HEp-2 cells
METRIC: CC50 at 72 h (µM)
One number for each entry, in µM.

# example entries with known answers
• CCNC(C)[C@@H]1CCN(c2c(F)cc3c(=O)c4c(=O)[nH]sc4n(C4CC4)c3c2OC)C1 (mixture of isomers) = 40
• COc1c(N2CC[C@@H]([C@H](C)N(C)C)C2)c(F)cc2c(=O)c3c(=O)[nH]sc3n(C3CC3)c12 = 39

We now examine a further molecule.
Recorded CC50 at 72 h of CN[C@H]1CCN(c2c(F)cc3c(=O)c4c(=O)[nH]sc4n(C4CC4)c3c2OC)C1 , please.
41
